- Test system: MDA-MB-468 breast
- Protocol Notes: NCI-60 one-dose screen, 48 h (100 = growth as untreated, 0 = no growth, -100 = all killed)
- Experimental Context: 10 µM unless noted
The panel holds about 83,000 compounds, 20% with a hit somewhere; the sample as a whole holds those more often.
Endpoint: growth (%)
Kindly provide the numeric value in % only, without the unit symbol.

Some entries whose results are on file:
Compound: O=S(=O)(NCCNc1nccc(-c2c(-c3ccc(F)c(O)c3)nc3sccn23)n1)c1ccc(Cl)cc1
Target: MDA-MB-468 breast
growth / %: 19.5
--
Compound: CCOC(=O)n1cc(-c2nonc2-c2cn(C)c3ccc(OC)cc23)c2cc(F)ccc21
Target: MDA-MB-468 breast
growth / %: 87.3
--
Compound: Cc1cccc(-c2nc(Nc3ccc4ncsc4c3)c3ccccc3n2)n1
Target: MDA-MB-468 breast
growth / %: 72.3

In one line, give reported growth of the entry Nc1nc2ncc(CNc3ccc(C(=O)NC(CCC(=O)NC(CCC(=O)NC(CCC(=O)NC(CCC(=O)NC(CCC(=O)O)C(=O)O)C(=O)O)C(=O)O)C(=O)O)C(=O)O)cc3)nc2c(=O)[nH]1 (centres undefined) .
131

----------
- System: MDA-MB-468 breast
- Protocol Notes: NCI-60 one-dose screen, 48 h (100 = growth as untreated, 0 = no growth, -100 = all killed)
- Experimental Context: 10 µM unless noted
The panel holds about 83,000 compounds, 20% with a hit somewhere; the sample as a whole holds those more often.
# growth listing for each entry below
Express it in %; write the number only.

Look up growth of CCNC(=O)Oc1ccc(/C(=C(\C)c2ccc(Cl)cc2)c2ccc(OCCN(CC)CC)cc2)cc1 and report it.
67.5

----------
The following compounds are listed with their measured growth values.
- Tested on: MDA-MB-468 breast
- Protocol Notes: NCI-60 one-dose screen, 48 h (100 = growth as untreated, 0 = no growth, -100 = all killed)
- Experimental Context: 10 µM unless noted
This is part of a sample that, as a whole, favours compounds with a hit. Of some 83,000 tested, about 20% had one in any assay.
Respond numerically; units are % and should not be typed.

Compound: O=C1Nc2ccccc2/C1=C/c1ccc[nH]1
Value Units: %
growth: -26
//
Compound: COC(=O)c1cc2c3c(cc(O)c2[nH]1)N(C(=O)C1Cc2cc(OC)c(OC)c(OC)c2N1)CC3CCl (stereo not drawn)
Value Units: %
growth: -41.8
//
Compound: CCOC(=O)CC(C#N)(CC(=O)OCC)C(=O)OCC
Value Units: %
growth: 96.9
//
Compound: COc1cccc(C2C(C#N)=C(N)Oc3cc4c(cc32)OCO4)c1 (stereo not drawn)
Value Units: %
growth: 2.26
//
Compound: CCOC(=O)C1=C(C)NC(=S)NC1c1ccccc1 (stereo not drawn)
Value Units: %
growth: 98.3

Please look at this compound and report its growth: COc1ccc2nc(Cl)c(/C=C3\CC(c4ccccc4)=NN(c4ccccc4)C3=O)cc2c1
74.9

Assign growth to the following record: Cn1c(=O)c(F)c(Nc2ccc(I)cc2F)c2c(=O)n(C[C@@H](O)CO)cnc21
77.9

Report growth for COc1ccc(-c2nc(N)n(C(=S)Nc3ccccc3)n2)cc1
102

Answer with reported growth of CN1CCN(c2ccc(Nc3nc(NCCCNS(=O)(=O)c4ccc(F)cc4)c4sccc4n3)cc2)CC1
25.9

Input NC(N)=N/N=C(/c1ccccc1)c1ccc(F)cc1 , output reported growth.
14.9

Supply recorded growth for CNc1ncc2cc(-c3ccc(-c4ncccc4F)cc3Cl)c(=O)n(CC3OCC(N)CO3)c2n1 (stereo not drawn) here.
34.5

Report growth for O=S(=O)(NCCCNc1nccc(-c2c(-c3ccc(F)cc3)nc3sccn23)n1)c1ccc2ccccc2c1
51.8
